Tested on: A549
measurement-protocol: Cytotoxicity against Homo sapiens (human) A549 cells assessed as survival after 3 days by crystal violet staining
Format: functional, cell-based
condition-summary: A549, 72 h
This listing pairs compounds with measured IC50.

Problem: Would you kindly share the measured IC50 for COc1cc2c(cc1OC)C(/C(=N/NC(N)=S)c1ccccc1)N(S(=O)(=O)c1ccc([N+](=O)[O-])cc1)CC2 (stereo not drawn) ?
Solution: > 50 mg/L

Problem: Also COc1cc2c(cc1OC)C(/C(C)=N/NC(N)=S)N(S(=O)(=O)c1ccc([N+](=O)[O-])cc1)CC2 (stereo not drawn) , if possible.
Solution: > 50 mg/L

Problem: Likewise for COc1cc2c(cc1OC)C(/C(C)=N/NC(N)=S)N(S(=O)(=O)c1ccc(C)cc1)CC2 (stereo not drawn) ?
Solution: > 50 mg/L

Problem: Next entry: C/C(=N\NC(N)=S)C1c2ccccc2CCN1S(=O)(=O)c1cccc([N+](=O)[O-])c1 (stereo not drawn)
Solution: > 50 mg/L

Problem: Input COc1ccc(S(=O)(=O)N2CCc3ccccc3C2/C(=N/NC(N)=S)c2ccccc2)cc1 (stereo not drawn)
Solution: > 50 mg/L

Problem: Please answer likewise for "COc1cccc2c1C(=O)c1c(O)c3c(c(O)c1C2=O)C[C@@](O)(C(=O)CO)C[C@@H]3O[C@H]1C[C@H](N)[C@H](O)[C@H](C)O1"
Solution: 0.38 mg/L

Problem: # repeat for NC(=S)N/N=C(\c1ccccc1)C1c2ccccc2CCN1S(=O)(=O)c1ccc([N+](=O)[O-])cc1 (stereo not drawn)
Solution: > 50 mg/L

Problem: COc1cc2c(cc1OC)C(/C(=N/NC(N)=S)c1ccccc1)N(S(=O)(=O)c1ccc(C)cc1)CC2 (stereo not drawn) ?
Solution: > 50 mg/L

Where do the numbers come from? From ChEMBL document CHEMBL3044739.
